- target.system: Atrial natriuretic peptide receptor 2 (Homo sapiens)
- protocol.summary: Natriuretic polypeptide receptor (hNpr2) antagonism - Pilot subtype selectivity assay (AID 1347050)
- assay.conditions: NPR2-expressing cells, cGMP antagonist-mode read-out; series mostly up to 38.3 µM
Inconclusive results are not listed. Activity calls are given as the source filed them. Calls follow the shape of the full dose curve.
A correct response names exactly one class from 1.0 (active), 0.0 (inactive)

Look over these answered cases.
compound | category.label
COc1cc(Cc2cnc(N)nc2N)cc(OC)c1OC | 0.0
Nc1ncn([C@@H]2O[C@H](CO)[C@@H](O)[C@H]2O)c(=O)n1 | 0.0
Cc1ccc(/C(=C\CN2CCCC2)c2ccccn2)cc1 | 0.0
CC(C)NCC(O)c1cc(O)cc(O)c1 (stereo unspecified) | 0.0
CCN1CCC[C@H]1CNC(=O)c1c(O)c(Cl)cc(Cl)c1OC | 0.0

Read the next record carefully.
Query: recorded result category for `CCCC(C(=O)OCCN(CC)CC)(c1ccccc1)c1ccccc1` in this test 1.0

---

- target.system: Single-stranded DNA cytosine deaminase (Homo sapiens)
- protocol.summary: Validation qHTS assay for inhibitors of Activation Induced Cytidine Deaminase (AID): AID signal (AID 1347429); also: % is scaled to controls: 0 for no effect and ±100 for the full control effect
- assay.conditions: Recombinant AID, FRET ssDNA deamination with UDG, fluorescence; series mostly up to 115 µM
Active and inactive are the calls of the source. Calls follow the shape of the dose curve; as a rule, active = well fitted inhibition curve with a large enough effect; inconclusive = small, poorly fitted or top-dose-only effect; inactive = no such curve, though single readings can be large or run the other way.
reported.endpoint: outcome

Completed entries (count: 6):
compound | outcome
C[C@]12CC[C@@H]3c4ccc(O)cc4C[C@@H](CCCCCCCCCS(=O)CCCC(F)(F)C(F)(F)F)[C@H]3[C@@H]1CC[C@@H]2O (stereo partly specified) | inactive
CCc1c(C)[nH]c2c1C(=O)C(CN1CCOCC1)CC2 (stereo unspecified) | inactive
CC(C)(C)NCC(O)c1cc(O)cc(O)c1 (stereo unspecified) | inactive
O=C(O)CN(CCOCCOCCN(CC(=O)O)CC(=O)O)CC(=O)O | inactive
Cc1ccc(=O)n(-c2ccccc2)c1 | inactive
CC1=C(C)C(=O)C(CCCCC#CCCCC#CCO)=C(C)C1=O | inactive

Quick batch: outcome for everything below.
1. COc1ccc2c(c1OC)C(=O)O[C@@H]2[C@H]1c2c(cc3c(c2OC)OCO3)CCN1C
2. CC1=NS(=O)(=O)c2cc(Cl)ccc2N1
3. CCN(CC)CCNC(=O)c1cc(S(C)(=O)=O)ccc1OC
4. CCN(CC)CCOCCOC(=O)C1(c2ccccc2)CCCC1
5. CC(C)(C)c1ccc(C(=O)CCCN2CCC(OC(c3ccccc3)c3ccccc3)CC2)cc1

1: inactive; 2: inactive; 3: inactive; 4: inactive; 5: inactive

---

- System: CRL-7250
- protocol.summary: Cytotoxic Profiling of Annotated Libraries Using Quantitative High-Throughput Screening (AID 1296008); also: % is scaled to controls: 0 for no effect and ±100 for the full control effect; nearly all actives have a fitted effect of over 60% in size
- assay.conditions: Five cell lines viability, CellTiter-Glo ATP luminescence, 48-72 h; stronger effect = lower value
Records with an inconclusive call do not appear. Calls of active or inactive are those of the source. The call rests on the fitted dose curve; in most records, active means well fitted inhibition curve with a large enough effect; inconclusive means small, poorly fitted or top-dose-only effect; inactive means flat fitted curve, though single readings scatter.
reported.endpoint: max response

structure.smiles | target.system | max response
C[C@]12C=CC(=O)C=C1CC[C@H]1[C@@H]3C[C@@H](O)[C@](O)(C(=O)CO)[C@@]3(C)C[C@H](O)[C@@]12F | CRL-7250 | 3.67% (inactive)

// each compound listed below needs its max response
1. CCC(=O)c1ccc2c(c1)N(CCCN(C)C)c1ccccc1S2
2. CC(=O)Oc1cc(C(C)C)c(OCCN(C)C)cc1C
3. O=C(CCCN1CCC(O)(c2cccc(C(F)(F)F)c2)CC1)c1ccc(F)cc1
4. CC(C)NNC(=O)c1ccncc1
5. CCN(CC)CCCN(c1ccccc1)C1Cc2ccccc2C1
6. c1cnc(N2CCN(Cc3ccc4c(c3)OCO4)CC2)nc1
7. CCN1CCc2nc(N)oc2CC1
8. CCCCNc1ccc(C(=O)OCCN(C)C)cc1

1. -1.9% (inactive)
2. -7.06% (inactive)
3. -19.1% (inactive)
4. -3.48% (inactive)
5. 2.42% (inactive)
6. -1.35% (inactive)
7. 2.68% (inactive)
8. 3.25% (inactive)

Parameters: items (list). Returns: max response for each item.
1. COC(=O)[C@@H](N)Cc1ccc(O)c(O)c1
2. O=C(CCNNC(=O)c1ccncc1)NCc1ccccc1
3. NC(=Nc1ccccc1)Nc1ccccc1

1. 0.35% (inactive)
2. 0.469% (inactive)
3. -3.1% (inactive)

---

- protocol.summary: S16 Schwann cell PMP22 intronic element beta-lactamase assay (AID 624044); also: nearly all actives have a fitted effect of over 15% in size
- assay.conditions: S16 rat Schwann cells, PMP22 element beta-lactamase FRET, 24 h; series mostly up to 38.3 µM
Inconclusive results are not listed. Active and inactive are the calls of the source. The call rests on the fitted dose curve.
Hello, when you answer, please use one of the following outcomes: label 1 for active, label 0 for inactive

compound | category.label
CN/C(=C\[N+](=O)[O-])NCCSCc1ccc(CN(C)C)o1 | label 0
CCN(CC)CC(=O)Nc1c(C)cccc1C | label 0

Hi, sorry to bother you, what did the test record for `CCCCCCCC/C=C\CCCCCCCC(=O)NCc1ccc(O)c(OC)c1` ? label 1

Quick one: CCCCCN(CCCCC)C(=O)C(CCC(=O)O)NC(=O)c1ccc(Cl)c(Cl)c1 (stereo unspecified) label 0

Now consider CC(C(=O)O)c1ccc(CC2CCCC2=O)cc1 (stereo unspecified) and answer again. label 0

Input `Cc1cc(C)c(/C=C2\C(=O)Nc3ccccc32)[nH]1` label 0

And then `C[n+]1cc2c3c(ccc2c2ccc4cc5c(cc4c21)OCO5)OCO3` , what is it? label 1

---

- protocol.summary: Natriuretic polypeptide receptor (hNpr1) antagonism - Pilot counterscreen GloSensor control cell line (AID 1347045); also: % is scaled to controls: 0 for no effect and ±100 for the full control effect
- assay.conditions: HEK293 cGMP GloSensor cells, SNP-stimulated luminescence, 20 min; series mostly up to 38.3 µM
Records with an inconclusive call do not appear. Activity calls are given as the source filed them. Calls follow the shape of the full dose curve.
Respond using exactly one of the listed classes: active, inactive

Use the examples below as a reference point.
compound | category.label
CO[C@@]1(NC(=O)CSCC#N)C(=O)N2C(C(=O)O)=C(CSc3nnnn3C)CS[C@@H]21 | inactive
COc1cc(Cc2cnc(N)nc2N)cc(OC)c1OC | inactive
CNCCC(Oc1ccccc1OC)c1ccccc1 (centres undefined) | inactive
CCOC(=O)C1=C(C)NC(C)=C(C(=O)OC)C1c1cccc([N+](=O)[O-])c1 (centres undefined) | inactive
CC(C)(Oc1ccc(CCNC(=O)c2ccc(Cl)cc2)cc1)C(=O)O | inactive

For `CN(C)CC/C=C1\c2ccccc2COc2ccccc21` , which call appears in the assay record? inactive

Also, NS(=O)(=O)c1cc2c(cc1Cl)NC(C1CC3C=CC1C3)NS2(=O)=O (centres undefined) please. inactive

Moving on to the next compound: `COc1cc(C(=O)OCCCN2CCCN(CCCOC(=O)c3cc(OC)c(OC)c(OC)c3)CC2)cc(OC)c1OC` inactive

Next: `C[N+](C)(C)CCOC(N)=O` inactive

---

- protocol.summary: Primary qHTS for inhibitors of La Crosse Virus (LACV) - induced cell death in SH-SY5Y cells (AID 1508616);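 also: top concentration of the series differs between compounds; 0% = infected DMSO wells and 100% = uninfected DMSO wells; higher means more rescue of cells from virus-induced death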
- assay.conditions: SH-SY5Y LACV cytopathicity rescue, ATP luminescence, 6 d; series mostly up to 9.63 µM
Inconclusive results are not listed. Active and inactive are the calls of the source. Calls follow the shape of the dose curve; as a rule, active = well fitted inhibition curve with a large enough effect; inconclusive = small, poorly fitted or top-dose-only effect; inactive = no such curve, though single readings can be large or run the other way.
reported.endpoint: outcome

Example molecules with recorded outcome:
molecule | result
COC(=O)C1=C(C)NC(C)=C(C(=O)OC(C)(C)CN(C)CCC(c2ccccc2)c2ccccc2)C1c1cccc([N+](=O)[O-])c1 (stereo not drawn) | inactive
CC(=O)[C@]1(O)Cc2c(O)c3c(c(O)c2[C@@H](O[C@H]2C[C@H](N)[C@H](O)[C@H](C)O2)C1)C(=O)c1ccccc1C3=O | inactive
CC(C(=O)O)c1ccc(CC2CCCC2=O)cc1 (stereo not drawn) | inactive
CC(C)(C)NCC(O)c1cc(O)cc(O)c1 (stereo not drawn) | inactive
CC(C)NCC(O)c1cc(O)cc(O)c1 (stereo not drawn) | inactive

# map each molecule to its outcome
1. C(=C\c1ccccc1)/CN1CCN(C(c2ccccc2)c2ccccc2)CC1
2. CN1C(=O)CC[C@H]1c1cccnc1
3. Cc1ccc(/C(=C\CN2CCCC2)c2ccccn2)cc1

inactive
inactive
inactive

---

- target.system: DNA polymerase III PolC-type (Bacillus subtilis (strain 168)) (UniProt P13267)
- Sequence (P13267 whole entry, looked up): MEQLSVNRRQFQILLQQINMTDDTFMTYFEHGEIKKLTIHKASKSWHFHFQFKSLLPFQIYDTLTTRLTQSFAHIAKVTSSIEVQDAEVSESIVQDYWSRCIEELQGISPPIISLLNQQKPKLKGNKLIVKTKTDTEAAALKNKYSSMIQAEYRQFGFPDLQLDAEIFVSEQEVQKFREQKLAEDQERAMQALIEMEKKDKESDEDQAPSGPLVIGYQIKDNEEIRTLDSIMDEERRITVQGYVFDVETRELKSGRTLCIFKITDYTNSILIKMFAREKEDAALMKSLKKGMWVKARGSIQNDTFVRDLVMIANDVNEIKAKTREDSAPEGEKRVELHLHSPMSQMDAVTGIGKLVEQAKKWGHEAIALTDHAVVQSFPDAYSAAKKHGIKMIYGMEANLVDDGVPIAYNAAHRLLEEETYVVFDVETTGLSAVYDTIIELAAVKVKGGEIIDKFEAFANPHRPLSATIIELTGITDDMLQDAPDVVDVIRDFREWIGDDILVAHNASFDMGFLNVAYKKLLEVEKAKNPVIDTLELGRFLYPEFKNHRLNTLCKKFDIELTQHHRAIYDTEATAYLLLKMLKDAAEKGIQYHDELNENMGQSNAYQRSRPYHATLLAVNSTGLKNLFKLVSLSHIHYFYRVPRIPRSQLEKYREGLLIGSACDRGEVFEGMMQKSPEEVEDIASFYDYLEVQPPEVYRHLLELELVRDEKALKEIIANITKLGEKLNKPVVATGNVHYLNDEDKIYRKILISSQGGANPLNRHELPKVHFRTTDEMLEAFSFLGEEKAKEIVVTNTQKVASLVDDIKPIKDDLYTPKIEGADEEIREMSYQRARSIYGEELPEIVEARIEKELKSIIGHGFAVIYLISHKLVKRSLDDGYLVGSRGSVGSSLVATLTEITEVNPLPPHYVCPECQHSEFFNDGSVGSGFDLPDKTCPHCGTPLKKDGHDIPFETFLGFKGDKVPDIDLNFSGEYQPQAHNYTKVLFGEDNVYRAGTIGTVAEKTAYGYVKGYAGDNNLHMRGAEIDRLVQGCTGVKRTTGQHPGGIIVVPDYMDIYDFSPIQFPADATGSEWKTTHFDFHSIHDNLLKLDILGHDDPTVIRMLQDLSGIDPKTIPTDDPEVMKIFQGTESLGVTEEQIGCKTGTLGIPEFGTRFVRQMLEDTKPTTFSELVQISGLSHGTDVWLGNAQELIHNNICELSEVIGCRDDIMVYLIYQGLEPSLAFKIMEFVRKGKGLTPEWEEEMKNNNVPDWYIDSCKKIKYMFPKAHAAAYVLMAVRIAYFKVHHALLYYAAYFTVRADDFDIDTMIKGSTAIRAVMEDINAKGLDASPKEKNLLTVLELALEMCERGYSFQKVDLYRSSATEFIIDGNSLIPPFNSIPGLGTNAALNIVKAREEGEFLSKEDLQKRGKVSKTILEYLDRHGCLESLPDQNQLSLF
- protocol.summary: qHTS Validation Assay for the Inhibitors of DNA Replication in Gram-Positive Bacteria (AID 485295); also: potency is read from the fitted curve at half-maximal effect
- assay.conditions: Gram-positive bacterial DNA replication assay; series mostly up to 57.1 µM
Active and inactive are the calls of the source. The call rests on the fitted dose curve; in most records, active means well fitted inhibition curve with a large enough effect; inconclusive means small, poorly fitted or top-dose-only effect; inactive means flat fitted curve, though single readings scatter.
reported.endpoint: Potency

Here is how some compounds turned out for Potency.
compound | target.system | Potency
C[C@]12CCC(=O)C=C1CC[C@@H]1[C@@H]2CC[C@@]2(C)[C@H]1CC[C@]2(O)C(=O)CO | DNA polymerase III PolC-type (Bacillus subtilis (strain 168)) (UniProt P13267) | inactive
Cc1cccc(C)c1NC(=O)C(C)N (centres undefined) | DNA polymerase III PolC-type (Bacillus subtilis (strain 168)) (UniProt P13267) | inactive
CC(C)(C)NCC(O)c1cc(O)cc(O)c1 (centres undefined) | DNA polymerase III PolC-type (Bacillus subtilis (strain 168)) (UniProt P13267) | inactive
CCCNC(C)C(=O)Nc1ccccc1C (centres undefined) | DNA polymerase III PolC-type (Bacillus subtilis (strain 168)) (UniProt P13267) | inactive
COc1ccc2c(c1OC)C(=O)O[C@@H]2[C@H]1c2c(cc3c(c2OC)OCO3)CCN1C | DNA polymerase III PolC-type (Bacillus subtilis (strain 168)) (UniProt P13267) | inactive
NC(Cc1ccc(Cl)cc1)C(=O)O (centres undefined) | DNA polymerase III PolC-type (Bacillus subtilis (strain 168)) (UniProt P13267) | inactive

Answer for every listed entry: what is its Potency? The entries follow.
1. CC(C)COCC(CN(Cc1ccccc1)c1ccccc1)N1CCCC1 (centres undefined)
2. CCCCCCCC/C=C\CCCCCCCC(=O)NCc1ccc(O)c(OC)c1
3. O=c1[nH]c(=O)n([C@H]2C[C@H](O)[C@@H](CO)O2)cc1Br
4. CC(=O)Nc1nnc(S(N)(=O)=O)s1
5. CCN1CCC[C@H]1CNC(=O)c1c(O)c(Cl)cc(Cl)c1OC
6. C[N+](C)(C)CCOC(N)=O

1: inactive; 2: inactive; 3: inactive; 4: inactive; 5: inactive; 6: inactive

Please give Potency, item by item, for the list that follows.
1. Cc1nc2ccccn2c(=O)c1CCN1CCC(C(=O)c2ccc(F)cc2)CC1
2. CCN(Cc1ccncc1)C(=O)C(CO)c1ccccc1 (centres undefined)

1: inactive; 2: inactive

Provide reported Potency for each item, in the same order as listed.
1. CN=C(NC#N)NCCSCc1nc[nH]c1C
2. O=C(CCNNC(=O)c1ccncc1)NCc1ccccc1
3. c1cc(CN2CCCCC2)cc(OCCCNc2nc3ccccc3s2)c1
4. CCNC(=O)N1CCN(CCCC(c2ccc(F)cc2)c2ccc(F)cc2)CC1
5. CC(=O)[C@]1(O)Cc2c(O)c3c(c(O)c2[C@@H](O[C@H]2C[C@H](N)[C@H](O)[C@H](C)O2)C1)C(=O)c1ccccc1C3=O
6. CC(=O)OCC1=C(C(=O)O)N2C(=O)[C@@H](NC(=O)Cc3cccs3)[C@H]2SC1
7. NC(N)=N/N=C/c1c(Cl)cccc1Cl
8. O=C1NCN(c2ccccc2)C12CCN(CCCC(c1ccc(F)cc1)c1ccc(F)cc1)CC2

1. inactive
2. inactive
3. inactive
4. inactive
5. 1060 nM (active)
6. inactive
7. inactive
8. inactive

Give one value of Potency per listed compound.
1. CCn1cc(C(=O)O)c(=O)c2cc3c(cc21)OCO3
2. Cc1scc2c1N(C(=O)CN1CCN(C)CC1)c1ccccc1NC2=O

1: inactive; 2: inactive
